Consider the following binders and their measured % Binding readings.
Target: T1, HAAH catalytic domain (human, UniProt Q12797)
T1 sequence: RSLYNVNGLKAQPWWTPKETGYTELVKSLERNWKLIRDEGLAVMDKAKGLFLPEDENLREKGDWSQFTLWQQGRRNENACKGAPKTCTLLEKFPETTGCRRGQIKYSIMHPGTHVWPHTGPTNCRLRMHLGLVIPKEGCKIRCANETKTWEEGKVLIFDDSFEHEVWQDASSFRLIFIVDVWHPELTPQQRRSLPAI
Test: ELISA on plates coated with HAAH catalytic domain
Assay endpoint: % Binding (%)

INSERT INTO measurements (binder, assay_endpoint, unit_label, endpoint_value) VALUES
  ('SNS622 (antibody, V domains shown) VH: QVQLQQSGPGLVKPSQTLSLTCAISGDSVSSNSAAWNWIRQSPSRGLEWLGRTYYRSKWYNDYAVSVKSRITINPDTSKNQFSLQLNSVTPEDTAVYYCARTGYSSSWVVNFDYWGQGTLVTVSS VL: QPVLTQSPSASGTPGQRVTISCSGSSSNIGSNYVYWYQQLPGTAPKLLIYKNNQRPSGVPDRFSGSKSGTAASLAISGLQSEDEADYYCAAWDDSLRGYVFGTGTKLTVLG', '% Binding', '%', 97.6),
  ('SNS622-DM1A2 (antibody, V domains shown, MC-DM1 on cysteine thiols of reduced disulfide bonds, positions not given; reaction DAR 2.5:1, pH 8, final DAR 2.10; MC-DM1 on cysteine thiols of reduced disulfide bonds, positions not given) VH: QVQLQQSGPGLVKPSQTLSLTCAISGDSVSSNSAAWNWIRQSPSRGLEWLGRTYYRSKWYNDYAVSVKSRITINPDTSKNQFSLQLNSVTPEDTAVYYCARTGYSSSWVVNFDYWGQGTLVTVSS VL: QPVLTQSPSASGTPGQRVTISCSGSSSNIGSNYVYWYQQLPGTAPKLLIYKNNQRPSGVPDRFSGSKSGTAASLAISGLQSEDEADYYCAAWDDSLRGYVFGTGTKLTVLG', '% Binding', '%', 84.8);
